- Assayed Target: Sodium-dependent dopamine transporter (Homo sapiens, UniProt Q01959)
- Sequence (Q01959 whole entry): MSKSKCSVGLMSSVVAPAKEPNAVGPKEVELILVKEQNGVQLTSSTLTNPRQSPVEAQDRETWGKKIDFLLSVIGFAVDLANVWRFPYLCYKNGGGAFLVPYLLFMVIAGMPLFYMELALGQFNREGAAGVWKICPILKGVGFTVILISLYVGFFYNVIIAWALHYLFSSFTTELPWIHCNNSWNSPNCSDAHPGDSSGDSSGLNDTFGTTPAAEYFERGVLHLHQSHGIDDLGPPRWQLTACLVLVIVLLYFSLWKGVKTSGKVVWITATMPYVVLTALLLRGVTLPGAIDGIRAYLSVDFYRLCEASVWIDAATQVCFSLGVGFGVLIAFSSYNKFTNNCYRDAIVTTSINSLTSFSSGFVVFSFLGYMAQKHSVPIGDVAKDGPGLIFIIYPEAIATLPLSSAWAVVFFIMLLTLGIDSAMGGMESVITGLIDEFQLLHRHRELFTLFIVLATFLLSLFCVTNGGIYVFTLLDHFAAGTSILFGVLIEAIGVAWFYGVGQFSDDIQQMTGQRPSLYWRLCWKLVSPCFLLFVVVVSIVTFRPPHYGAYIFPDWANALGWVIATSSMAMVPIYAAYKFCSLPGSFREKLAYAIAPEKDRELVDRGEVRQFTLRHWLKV
- Protocol Summary: Inhibition of dopamine transporter (unknown origin) assessed as suppression of synaptosomal uptake of dopamine
Measurement Label: pIC50
Answers are plain numbers, as −log10 of the molar value.

compound="CCC(C)C(=O)[C@]12C(=O)[C@](CC=C(C)C)(C[C@H](CC=C(C)C)[C@@]1(C)CCC=C(C)C)C(=O)C(CC=C(C)C)=C2O (some centres not stated) [ADHYPERFORIN]" assayed_target="Sodium-dependent dopamine transporter (Homo sapiens, UniProt Q01959)" value_reported=5.70

Proceeding to the next compound to report its pIC50.
Q. Which measured pIC50 value corresponds to "CC(C)=CCC[C@]1(C)[C@@H](CC=C(C)C)C[C@]2(CC=C(C)C)C(=O)C(CC=C(C)C)=C(O)[C@@]1(C(=O)C(C)C)C2=O" ?
A. 5.70
